Source listed as patent US7291332B2.

Field: Expt 2 EC50. Provide a value for each of the molecules that follow.
system: HepG2 B6 cells (STAT-sPAP reporter); experiment: OSM-GST mutant driven sPAP production in HepG2 B6 assay; type: cell-based, human
Write the numeric value and follow it with the unit.

IN: Can you look up the measured Expt 2 EC50 of (25) Y130A: OSM-GST fusion, alanine for Gln 130 (protein, left off: a dimerising Fc or GST; large carriers; small tags and cut ends) AAIGSCSKEYRVLLGQLQKQTDLMQDTSRLLDPYIRIQGLDVPKLREHCRERPGAFPSEETLRGLGRRGFLQTLNATLGCVLHRLADLEQRLPKAQDLERSGLNIEDLEKLQMARPNILGLRNNIYCMAALLDNSDTAEPTKAGRGASQPPTPTPASDAFQRKLEGCRFLHGYHRFMHSVGRVFSKWGESPNRSRR for me?
OUT: 0.0082 µg/mL

IN: Can you look up the measured Expt 2 EC50 of (26) Q25A: OSM-GST fusion, alanine for Gln 25 (protein, left off: a dimerising Fc or GST; large carriers; small tags and cut ends) AAIGSCSKEYRVLLGQLQKQTDLMADTSRLLDPYIRIQGLDVPKLREHCRERPGAFPSEETLRGLGRRGFLQTLNATLGCVLHRLADLEQRLPKAQDLERSGLNIEDLEKLQMARPNILGLRNNIYCMAQLLDNSDTAEPTKAGRGASQPPTPTPASDAFQRKLEGCRFLHGYHRFMHSVGRVFSKWGESPNRSRR for me?
OUT: 0.013 µg/mL
